Where do the numbers come from? From ChEMBL document CHEMBL4152256.

ASSAY_EXPLANATION: Genotoxicity in Salmonella typhimurium TA1535 harboring pSK1002 assessed as umu gene induction at 0.0002 mg/ml in absence of Sprague-Dawley rat liver S9 fraction after by SOS/umu assay relative to control
Assay type: toxicity, organism-based
TEST_CONTEXT: salmonella enterica subsp. enterica serovar typhimurium, read-out: FC
REPORTED_PROPERTY: fold induction at 0.0002 mg/ml
Give only the figure.

Record excerpt, results attached:
Reported fold induction at 0.0002 mg/ml, compound OC(CCN1CCN(C(c2ccccc2)c2ccccc2)CC1)c1ccc(Cl)cc1 (centres undefined) : ____
1

Please report the recorded fold induction at 0.0002 mg/ml for OC(CCN1CCN(C(c2ccccc2)c2ccccc2)CC1)c1ccc(Br)cc1 (centres undefined) .
0.8

Dear colleague, I am looking for the recorded fold induction at 0.0002 mg/ml of the following compound: OC(CCN1CCN(C(c2ccccc2)c2ccccc2)CC1)c1ccc(F)cc1 (centres undefined)
1.1

Then this compound:
I would be grateful if you could share the reported fold induction at 0.0002 mg/ml for OC(CCN1CCN(C(c2ccccc2)c2ccccc2)CC1)c1ccc(F)c(Cl)c1 (centres undefined) .
0.8

---

ASSAY_EXPLANATION: Genotoxicity in Salmonella typhimurium TA1535 harboring pSK1002 assessed as umu gene induction at 0.031 mg/ml in absence of Sprague-Dawley rat liver S9 fraction after by SOS/umu assay relative to control
Format: toxicity, organism-based
TEST_CONTEXT: salmonella enterica subsp. enterica serovar typhimurium, read-out: FC
REPORTED_PROPERTY: fold induction at 0.031 mg/ml
Would you mind answering with just the numeric figure?

// returns reported fold induction at 0.031 mg/ml for input OC(CCN1CCN(C(c2ccccc2)c2ccccc2)CC1)c1ccc(F)c(F)c1 (centres undefined)
1.9

# fold induction at 0.031 mg/ml lookup, item N#Cc1ccc(N2CCC(NCCC(O)c3ccc(F)c4ccccc34)CC2)c(Cl)c1 (centres undefined)
0.5

Which fold induction at 0.031 mg/ml value is on record for Oc1ccc(C(O)CCN2CC=C(c3ccc(F)cc3)CC2)cc1 (centres undefined) ?
1.1

API: the following record is the query input.
Which fold induction at 0.031 mg/ml value belongs to OC(CCN1CC=C(c2ccc(F)cc2)CC1)c1ccc2c(c1)OCO2 (centres undefined) ?
0.8

---

Test system: Plasmodium falciparum
ASSAY_EXPLANATION: Binding affinity to Plasmodium falciparum GRP94 nucleotide binding domain by SPR analysis
The source made the active and inactive calls. The rule behind the calls is not given here.
REPORTED_PROPERTY: Activity

In the examples that follow, each entry is paired with its recorded Activity.
# input compound: O=[N+]([O-])c1ccc(N2CCC(NCCC(O)c3ccc(F)c4ccccc34)CC2)c(C(F)(F)F)c1 (stereo in doubt; 8) ; wanted: its Activity
inactive

May I ask what Activity has been recorded for COc1ccccc1N1CCN(CCC(O)c2ccc(F)cc2)CC1 (stereo in doubt; 66) ?
inactive

So what does the record say about Activity for OC(CCN1CCN(C(c2ccccc2)c2ccccc2)CC1)c1ccc(F)c2ccccc12 (centres undefined) ?
inactive

Please give the measured Activity for this compound: O=[N+]([O-])c1ccc(N2CCC(NCCC(O)c3ccc(F)cc3)CC2)c(C(F)(F)F)c1 (centres undefined)
inactive

Name the reported Activity value associated with the compound N#Cc1ccc(N2CCC(NCCC(O)c3ccc(F)c4ccccc34)CC2)c(C(F)(F)F)c1 (stereo in doubt; 72)
inactive

Others:
Given N#Cc1ccc(N2CCC(NCCC(O)c3ccc(F)c4ccccc34)CC2)c(Cl)c1 (centres undefined) , state its recorded Activity.
inactive
